The reported measurements were obtained from paper PMC9850094.

measuredOn: p47phox^SH3A−B (human His-tagged p47phox^151−286) (Homo sapiens, UniProt P14598)
Construct: human His-tagged p47phox^151−286
assayComment: Fluorescence polarization (FP) competition assay
Assay type: binding
studyConditions: water; probe TAMRA-p22phox^151–162; over 2–20 min
pKi: −log10 of the molar value.
readoutLabel: pKi

Determine from records and report pKi for Ac-PPTNPPPRPPAE-NH2 [p22phox^151–162]
3.81 to 3.85
